B1: Hairpin Ribozyme (parent)
chain: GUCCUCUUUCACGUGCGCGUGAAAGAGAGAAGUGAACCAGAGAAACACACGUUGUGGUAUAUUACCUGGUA

# Variants of: B1
# Assay Method Text: self-cleavage, relative activity (ratio to wild type); higher = more cleavage; co-transcriptional
Readout: self-cleavage
Lab note: record the figure alone, no unit after it.

Example variants with recorded self-cleavage:
U33C U62A : 0.278
G17C A22G : 0.552
G27C U52G : 0.163

Note: attention shifts to another entry.
## Input Could you share which self-cleavage value was measured for C37U A49G ?
## Output 0.508
